Known Ki of a selection of compounds
# Assayed target: UniProt:P35462
# Sequence (P35462 whole entry): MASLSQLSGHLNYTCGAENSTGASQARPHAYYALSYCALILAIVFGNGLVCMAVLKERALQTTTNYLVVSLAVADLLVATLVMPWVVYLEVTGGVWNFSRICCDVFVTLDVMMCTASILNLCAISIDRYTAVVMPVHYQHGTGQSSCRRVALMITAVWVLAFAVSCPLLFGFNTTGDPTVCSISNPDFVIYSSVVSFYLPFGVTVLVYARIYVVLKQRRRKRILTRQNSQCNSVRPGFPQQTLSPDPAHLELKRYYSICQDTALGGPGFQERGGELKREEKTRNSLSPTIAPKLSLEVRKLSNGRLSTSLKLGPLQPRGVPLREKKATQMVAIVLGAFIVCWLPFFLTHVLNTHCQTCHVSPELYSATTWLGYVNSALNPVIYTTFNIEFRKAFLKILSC
Property: Ki (nM)

1) O=C(N[C@H]1CC[C@H](CCN2CCC(c3coc4ccccc34)CC2)CC1)c1ccc(C(F)(F)F)cc1    2.21
2) O=C(C[C@@H](O)C(F)(F)F)N[C@H]1CC[C@H](CCN2CCC(c3coc4ccccc34)CC2)CC1    2.29
3) CCCCC(=O)N[C@H]1CC[C@H](CCN2CCC(c3coc4ccccc34)CC2)CC1    2.21
4) CCc1ccc(C(=O)N[C@H]2CC[C@H](CCN3CCC(c4coc5ccccc45)CC3)CC2)cc1    1.33
5) Cc1ccc(S(=O)(=O)N[C@H]2CC[C@H](CCN3CCC(c4coc5ccccc45)CC3)CC2)cc1    6.24
6) CN1CCN(c2ccc(C(=O)N[C@H]3CC[C@H](CCN4CCC(c5coc6ccccc56)CC4)CC3)cc2)CC1    6.03
7) O=C(N[C@H]1CC[C@H](CCN2CCC(c3coc4ccccc34)CC2)CC1)C1CCC(C(F)(F)F)CC1 (stereo partly drawn)    6.8
8) CC(C)C(=O)N[C@H]1CC[C@H](CCN2CCC(c3coc4ccccc34)CC2)CC1    1.78
9) O=C(N[C@H]1CC[C@H](CCN2CCC(c3coc4ccccc34)CC2)CC1)c1ccc(-c2ccccc2)cc1    3.37
10) O=C(CC1COCCO1)N[C@H]1CC[C@H](CCN2CCC(c3coc4ccccc34)CC2)CC1 (mixture of isomers)    2.02
11) O=C(N[C@H]1CC[C@H](CCN2CCC(c3coc4ccccc34)CC2)CC1)c1ccccc1    1.34
12) O=C(N[C@H]1CC[C@H](CCN2CCC(c3coc4ccccc34)CC2)CC1)c1ccc(N2CCOCC2)cc1    7.4
13) Cc1cc(CC(=O)N[C@H]2CC[C@H](CCN3CCC(c4coc5ccccc45)CC3)CC2)on1    0.68
14) CC[C@H](O)CC(=O)N[C@H]1CC[C@H](CCN2CCC(c3coc4ccccc34)CC2)CC1    2.25
15) O=C(N[C@H]1CC[C@H](CCN2CCC(c3coc4ccccc34)CC2)CC1)c1cnc(N2CCOCC2)cn1    7.72

Reference source: patent US8921397B2
